- Target entity: Poly [ADP-ribose] polymerase tankyrase-2 (Homo sapiens, UniProt Q9H2K2)
- Sequence (Q9H2K2 whole entry): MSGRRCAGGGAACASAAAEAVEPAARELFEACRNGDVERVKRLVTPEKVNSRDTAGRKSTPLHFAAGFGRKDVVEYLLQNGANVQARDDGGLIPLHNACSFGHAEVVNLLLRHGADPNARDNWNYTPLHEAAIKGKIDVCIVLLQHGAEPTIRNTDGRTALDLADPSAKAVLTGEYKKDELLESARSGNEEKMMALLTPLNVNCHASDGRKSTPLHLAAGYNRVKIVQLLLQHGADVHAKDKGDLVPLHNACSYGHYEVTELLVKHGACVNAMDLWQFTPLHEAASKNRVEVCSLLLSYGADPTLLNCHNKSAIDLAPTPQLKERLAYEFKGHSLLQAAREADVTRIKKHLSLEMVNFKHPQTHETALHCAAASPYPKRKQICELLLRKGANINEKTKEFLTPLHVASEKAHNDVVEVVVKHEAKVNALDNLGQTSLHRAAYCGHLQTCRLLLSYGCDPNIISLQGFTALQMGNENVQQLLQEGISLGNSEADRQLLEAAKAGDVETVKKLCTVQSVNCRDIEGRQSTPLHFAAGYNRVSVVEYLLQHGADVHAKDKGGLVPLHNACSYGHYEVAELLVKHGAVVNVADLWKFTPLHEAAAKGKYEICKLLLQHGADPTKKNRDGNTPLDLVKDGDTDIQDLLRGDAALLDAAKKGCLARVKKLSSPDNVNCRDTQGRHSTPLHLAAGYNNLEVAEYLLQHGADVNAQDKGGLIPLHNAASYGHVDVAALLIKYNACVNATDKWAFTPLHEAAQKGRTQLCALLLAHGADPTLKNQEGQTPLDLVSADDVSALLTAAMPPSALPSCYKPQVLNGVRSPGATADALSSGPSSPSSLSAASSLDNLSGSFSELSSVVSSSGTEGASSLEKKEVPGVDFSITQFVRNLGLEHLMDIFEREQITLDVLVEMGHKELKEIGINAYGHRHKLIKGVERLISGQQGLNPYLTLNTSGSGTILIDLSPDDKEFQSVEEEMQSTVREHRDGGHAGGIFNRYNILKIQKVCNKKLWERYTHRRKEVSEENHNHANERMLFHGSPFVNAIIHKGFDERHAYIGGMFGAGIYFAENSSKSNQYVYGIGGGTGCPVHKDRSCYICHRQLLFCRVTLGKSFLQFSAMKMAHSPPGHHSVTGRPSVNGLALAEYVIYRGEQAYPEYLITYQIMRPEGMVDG
- Assay protocol: biochemical
- Description: Inhibition of GST tagged-TEV cleavage site-fused human recombinant TNKS2 (873 to 1166 residues) expressed in baculovirus infected Sf9 cells assessed as reduction in auto-PARsylation incubated for 90 mins in presence of bio-NAD as co-substrate by TR-FRET assay
Quantity name: IC50 (nM)

INSERT INTO measurements (substance_smiles, quantity_name, value_measured) VALUES
  ('O=c1[nH]c(-c2ccc3c(c2)OCO3)nc2ccccc12', 'IC50', 620);

---

- Target entity: Protein mono-ADP-ribosyltransferase PARP8 (Homo sapiens, UniProt Q8N3A8)
- Sequence (Q8N3A8 whole entry): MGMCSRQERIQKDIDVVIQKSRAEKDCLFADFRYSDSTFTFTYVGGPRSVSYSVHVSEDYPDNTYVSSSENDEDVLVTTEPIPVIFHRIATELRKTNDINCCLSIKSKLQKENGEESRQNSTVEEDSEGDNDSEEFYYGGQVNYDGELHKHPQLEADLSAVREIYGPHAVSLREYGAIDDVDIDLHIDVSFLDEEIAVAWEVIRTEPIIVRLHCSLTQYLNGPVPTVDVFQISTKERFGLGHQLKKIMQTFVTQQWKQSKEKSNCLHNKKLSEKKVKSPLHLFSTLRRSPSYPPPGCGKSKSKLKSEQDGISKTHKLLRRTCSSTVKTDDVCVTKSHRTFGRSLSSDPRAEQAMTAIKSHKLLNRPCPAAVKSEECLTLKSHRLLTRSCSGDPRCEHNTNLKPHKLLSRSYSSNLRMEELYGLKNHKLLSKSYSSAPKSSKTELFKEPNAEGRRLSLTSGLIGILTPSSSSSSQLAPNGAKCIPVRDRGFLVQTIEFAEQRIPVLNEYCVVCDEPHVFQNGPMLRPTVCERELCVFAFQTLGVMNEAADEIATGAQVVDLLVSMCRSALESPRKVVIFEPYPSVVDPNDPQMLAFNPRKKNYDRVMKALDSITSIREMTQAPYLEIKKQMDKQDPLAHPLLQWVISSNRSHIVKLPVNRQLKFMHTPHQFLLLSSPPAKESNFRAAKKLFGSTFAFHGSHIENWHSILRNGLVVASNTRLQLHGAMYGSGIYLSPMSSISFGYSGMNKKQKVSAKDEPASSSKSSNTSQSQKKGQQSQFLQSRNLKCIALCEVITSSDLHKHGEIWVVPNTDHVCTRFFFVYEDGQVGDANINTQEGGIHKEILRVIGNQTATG
- Assay protocol: Inhibition of human recombinant PARP8 by chemiluminescence method
pIC50: −log10 of the molar value.
Quantity name: pIC50

INSERT INTO results (substance_smiles, value_measured) VALUES
  ('CC(C)(O)c1ccc(-c2nc3c(F)cc(F)cc3c(=O)[nH]2)cc1', '< 5.00');

---

- Target entity: Poly [ADP-ribose] polymerase 1 (Homo sapiens, UniProt P09874)
- Sequence (P09874 whole entry): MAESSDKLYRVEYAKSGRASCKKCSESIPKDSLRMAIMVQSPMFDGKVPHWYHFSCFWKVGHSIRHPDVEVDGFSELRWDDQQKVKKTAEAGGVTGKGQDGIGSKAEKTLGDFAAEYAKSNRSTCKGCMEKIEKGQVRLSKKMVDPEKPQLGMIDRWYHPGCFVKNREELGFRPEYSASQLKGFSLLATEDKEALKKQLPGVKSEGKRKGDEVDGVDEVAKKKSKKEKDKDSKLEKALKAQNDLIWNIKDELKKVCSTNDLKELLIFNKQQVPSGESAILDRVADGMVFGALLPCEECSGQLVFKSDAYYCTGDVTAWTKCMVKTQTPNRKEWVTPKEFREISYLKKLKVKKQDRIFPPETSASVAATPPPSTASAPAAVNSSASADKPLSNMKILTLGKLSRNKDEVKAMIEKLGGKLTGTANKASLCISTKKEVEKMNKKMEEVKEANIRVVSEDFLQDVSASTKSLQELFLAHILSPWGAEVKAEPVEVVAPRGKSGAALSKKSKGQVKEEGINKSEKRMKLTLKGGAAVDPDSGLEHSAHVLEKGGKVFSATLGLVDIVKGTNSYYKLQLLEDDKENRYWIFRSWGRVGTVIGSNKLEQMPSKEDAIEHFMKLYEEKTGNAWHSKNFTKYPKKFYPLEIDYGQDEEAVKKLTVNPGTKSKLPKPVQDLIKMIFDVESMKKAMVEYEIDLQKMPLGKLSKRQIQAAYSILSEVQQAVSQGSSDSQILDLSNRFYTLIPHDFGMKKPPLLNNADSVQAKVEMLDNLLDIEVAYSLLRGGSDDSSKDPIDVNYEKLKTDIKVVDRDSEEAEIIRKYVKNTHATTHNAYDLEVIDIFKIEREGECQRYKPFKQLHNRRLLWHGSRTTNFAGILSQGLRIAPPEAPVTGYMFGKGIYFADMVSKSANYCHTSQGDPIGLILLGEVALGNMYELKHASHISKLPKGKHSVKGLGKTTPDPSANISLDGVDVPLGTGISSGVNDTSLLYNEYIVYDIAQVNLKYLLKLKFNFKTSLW
- Assay protocol: Inhibition of N-terminal GST-tagged recombinant full length human PARP1 expressed in Baculovirus infected Sf9 cells using biotinylated substrate after 1 hr by chemiluminescence method
Quantity name: IC50 (nM)

INSERT INTO assay_data (substance_smiles, value_measured) VALUES
  ('CC(C)(O)c1ccc(-c2nc3c(F)cc(F)cc3c(=O)[nH]2)cc1', 710);

---

- Target entity: Poly [ADP-ribose] polymerase tankyrase-1 (Homo sapiens)
- Sequence (O95271 whole entry): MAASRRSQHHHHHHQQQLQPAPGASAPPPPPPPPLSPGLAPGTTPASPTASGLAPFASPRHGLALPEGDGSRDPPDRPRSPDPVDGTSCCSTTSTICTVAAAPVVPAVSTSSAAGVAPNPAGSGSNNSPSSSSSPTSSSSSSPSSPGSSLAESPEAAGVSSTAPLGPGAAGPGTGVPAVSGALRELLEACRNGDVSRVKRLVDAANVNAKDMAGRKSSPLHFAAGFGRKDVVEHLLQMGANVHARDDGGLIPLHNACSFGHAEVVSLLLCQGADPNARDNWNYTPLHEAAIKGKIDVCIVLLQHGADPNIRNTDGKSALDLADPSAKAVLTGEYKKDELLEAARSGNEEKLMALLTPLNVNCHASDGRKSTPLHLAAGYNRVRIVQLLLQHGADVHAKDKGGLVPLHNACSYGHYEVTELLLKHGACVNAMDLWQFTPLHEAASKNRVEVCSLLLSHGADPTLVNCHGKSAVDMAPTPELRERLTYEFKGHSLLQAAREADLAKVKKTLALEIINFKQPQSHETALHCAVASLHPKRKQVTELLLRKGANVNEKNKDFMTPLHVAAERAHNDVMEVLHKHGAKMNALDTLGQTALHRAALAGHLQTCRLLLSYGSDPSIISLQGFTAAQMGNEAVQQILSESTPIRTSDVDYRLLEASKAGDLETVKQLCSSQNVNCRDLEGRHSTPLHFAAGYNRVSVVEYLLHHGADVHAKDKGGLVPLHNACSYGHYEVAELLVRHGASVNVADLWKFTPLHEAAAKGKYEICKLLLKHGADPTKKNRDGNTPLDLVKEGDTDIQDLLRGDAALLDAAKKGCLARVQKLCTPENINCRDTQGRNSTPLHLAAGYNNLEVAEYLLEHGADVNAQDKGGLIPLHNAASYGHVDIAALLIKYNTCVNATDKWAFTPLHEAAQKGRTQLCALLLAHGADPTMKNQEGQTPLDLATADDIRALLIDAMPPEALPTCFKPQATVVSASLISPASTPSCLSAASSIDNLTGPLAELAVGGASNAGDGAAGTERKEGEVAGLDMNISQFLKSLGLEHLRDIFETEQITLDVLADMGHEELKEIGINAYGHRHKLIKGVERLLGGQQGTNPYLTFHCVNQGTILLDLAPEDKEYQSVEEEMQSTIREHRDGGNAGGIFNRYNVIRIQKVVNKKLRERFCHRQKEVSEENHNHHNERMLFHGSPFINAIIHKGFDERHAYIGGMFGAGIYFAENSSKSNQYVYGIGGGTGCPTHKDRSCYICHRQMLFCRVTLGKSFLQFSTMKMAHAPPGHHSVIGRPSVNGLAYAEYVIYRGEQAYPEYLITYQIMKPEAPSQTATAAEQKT
- Parameters: species or system Sf9
Quantity name: IC50 (nM)

INSERT INTO results (substance_smiles, value_measured) VALUES
  ('CC(C)(O)c1ccc(-c2nc3ccc(F)cc3c(=O)[nH]2)cc1', 12.5),
  ('Cc1cccc2c(=O)[nH]c(-c3ccc(C(C)(C)O)cc3)nc12', 1.2),
  ('CC(C)(C)c1ccc(-c2nc3ccccc3c(=O)[nH]2)cc1', 7.9);
